# measured-target: GLUT1 (Homo sapiens)
# Construct: endogenous in cells
# Sequence (P11166 1-492): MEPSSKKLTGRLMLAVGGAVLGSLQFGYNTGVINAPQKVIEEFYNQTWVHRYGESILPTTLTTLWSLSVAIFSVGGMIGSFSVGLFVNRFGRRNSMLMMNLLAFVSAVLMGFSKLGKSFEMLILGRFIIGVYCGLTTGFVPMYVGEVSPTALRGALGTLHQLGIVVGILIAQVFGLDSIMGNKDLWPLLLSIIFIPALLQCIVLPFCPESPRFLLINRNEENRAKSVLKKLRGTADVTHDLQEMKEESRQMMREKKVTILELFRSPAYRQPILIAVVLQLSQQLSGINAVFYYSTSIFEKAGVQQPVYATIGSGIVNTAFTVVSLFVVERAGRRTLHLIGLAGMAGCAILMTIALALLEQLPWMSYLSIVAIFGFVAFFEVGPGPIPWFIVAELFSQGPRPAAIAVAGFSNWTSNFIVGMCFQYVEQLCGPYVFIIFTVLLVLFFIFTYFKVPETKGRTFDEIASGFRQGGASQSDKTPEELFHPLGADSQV
# procedure-text: Indirect measurement of GLUT activity by quantification of intracellular ATP levels (glucose induced ATP increase)
# assay-conditions: DLD1 cells; 1 mM glucose, 1 uM Rotenone, 15 min; standardized to cytochalasin B IC50 values; read-out: IC50 regarding glucose induced ATP increase (GLUT1 inhibition)
readout-type: IC50 (µM)
Supply the numeric figure in µM, leaving out any unit text.

Problem: Would you mind telling me what IC50 value was observed for `CNC(=O)c1nn(Cc2ccc(F)cc2)cc1NC(=O)c1cc(C(F)(F)F)nc2ccc(Br)cc12` ?
Solution: 20.1

Problem: Would you mind telling me what IC50 value was observed for `Cc1nn(Cc2ccc(F)cc2)cc1NC(=O)c1cc(C(F)(F)F)nc2cc(F)c(F)cc12` ?
Solution: 0.505

Problem: Would you mind telling me what IC50 value was observed for `Cc1ccc2nc(C)cc(C(=O)Nc3cn(Cc4ccc(F)cc4)nc3C)c2c1` ?
Solution: 0.061

Problem: Would you mind telling me what IC50 value was observed for `N#Cc1ccc(Cn2cc(NC(=O)c3cc(C(N)=O)nc4ccccc34)c(C(F)(F)F)n2)cc1` ?
Solution: 0.02

Problem: Would you mind telling me what IC50 value was observed for `COc1ccc(Cn2cc(NC(=O)c3cc(C(N)=O)nc4ccccc34)c(C)n2)cc1` ?
Solution: 0.0023

Problem: Would you mind telling me what IC50 value was observed for `CC(C)c1nn(Cc2ccc(C#N)cc2)cc1NC(=O)c1cc(C(N)=O)nc2cc(F)ccc12` ?
Solution: 0.12

Problem: Would you mind telling me what IC50 value was observed for `CNC(=O)c1nc(Cn2cc(NC(=O)c3cc(C(F)(F)F)nc4ccc(Br)cc34)c(C)n2)no1` ?
Solution: 0.064

Problem: Would you mind telling me what IC50 value was observed for `Cc1nc(Cn2cc(NC(=O)c3cc(C(F)(F)F)nc4ccc(Br)cc34)c(C)n2)cs1` ?
Solution: 0.275

Problem: Would you mind telling me what IC50 value was observed for `O=C(Nc1cn(Cc2ccc(F)cc2)nc1C(F)(F)F)c1cc(C(F)(F)F)nc2cc(F)c(F)cc12` ?
Solution: 2.04

Problem: Would you mind telling me what IC50 value was observed for `Cc1nn(Cc2ccc(C#N)cc2)cc1NC(=O)c1cc(C(N)=O)nc2ccccc12` ?
Solution: 0.0043

Problem: Would you mind telling me what IC50 value was observed for `N#Cc1ccc(Cn2cc(NC(=O)c3cc(C(F)(F)F)nc4ccc(Br)cc34)c(C(F)(F)F)n2)cc1` ?
Solution: 0.084

Problem: Would you mind telling me what IC50 value was observed for `Cc1nn(Cc2ccc(C#N)cc2)cc1NC(=O)c1cc(C2CC2)nc2ccc(Br)cc12` ?
Solution: 0.0052

Problem: Would you mind telling me what IC50 value was observed for `Cc1ccc2nc(C)cc(C(=O)Nc3cn(Cc4ccc(F)cc4)nc3C(F)(F)F)c2c1` ?
Solution: 0.183

Problem: Would you mind telling me what IC50 value was observed for `Cc1cc(Cn2cc(NC(=O)c3cc(C(N)=O)nc4ccccc34)c(C)n2)no1` ?
Solution: 0.153

Problem: Would you mind telling me what IC50 value was observed for `CN(C)C(=O)c1nn(Cc2ccc(C#N)cc2)cc1NC(=O)c1cc(C(F)(F)F)nc2ccc(Br)cc12` ?
Solution: 1.7

Problem: Would you mind telling me what IC50 value was observed for `Cc1nn(Cc2ccc(C#N)cc2)cc1NC(=O)c1cc(C(N)=O)nc2cc(F)c(Cl)cc12` ?
Solution: 0.004

Problem: Would you mind telling me what IC50 value was observed for `COc1ccc(Cn2cc(NC(=O)c3cc(OC)nc4ccccc34)c(C)n2)cc1` ?
Solution: 0.021

Problem: Would you mind telling me what IC50 value was observed for `CS(=O)(=O)c1ccc(Cn2cc(NC(=O)c3cc(C(N)=O)nc4cc(F)c(Cl)cc34)c(C(F)(F)F)n2)cc1` ?
Solution: 0.011

Problem: Would you mind telling me what IC50 value was observed for `Cc1nn(Cc2ccccc2C#N)cc1NC(=O)c1cc(C(N)=O)nc2ccccc12` ?
Solution: 0.137

Problem: Would you mind telling me what IC50 value was observed for `CNC(=O)c1nc(Cn2cc(NC(=O)c3cc(C(N)=O)nc4ccccc34)c(C)n2)no1` ?
Solution: 0.301

Problem: Would you mind telling me what IC50 value was observed for `Cc1nc(Cn2cc(NC(=O)c3cc(C(N)=O)nc4ccccc34)c(C)n2)cs1` ?
Solution: 0.26

Problem: Would you mind telling me what IC50 value was observed for `Cc1nn(Cc2ccn(C)n2)cc1NC(=O)c1cc(C(N)=O)nc2ccccc12` ?
Solution: 0.19

Problem: Would you mind telling me what IC50 value was observed for `Cc1ccc(Cn2cc(NC(=O)c3cc(C(N)=O)nc4ccccc34)c(C)n2)cc1` ?
Solution: 0.013

Problem: Would you mind telling me what IC50 value was observed for `Cc1nn(Cc2ccc(F)cc2)cc1NC(=O)c1cc(C(N)=O)nc2ccccc12` ?
Solution: 0.015

Problem: Would you mind telling me what IC50 value was observed for `COc1ccc(Cn2cc(NC(=O)c3cc(C(F)(F)F)nc4ccc(Br)cc34)c(C)n2)cc1` ?
Solution: 0.029

Problem: Would you mind telling me what IC50 value was observed for `CCc1nn(Cc2ccc(C#N)cc2)cc1NC(=O)c1cc(C(N)=O)nc2ccccc12` ?
Solution: 0.023

Problem: Would you mind telling me what IC50 value was observed for `COc1cc(C(=O)Nc2cn(Cc3ccc(C#N)cc3)nc2C)c2ccccc2n1` ?
Solution: 0.079

Problem: Would you mind telling me what IC50 value was observed for `Cc1nn(Cc2ccc(F)c(F)c2)cc1NC(=O)c1cc(C(N)=O)nc2ccccc12` ?
Solution: 0.083

Problem: Would you mind telling me what IC50 value was observed for `N#Cc1ccc(Cn2cc(NC(=O)c3cc(C(F)(F)F)nc4ccc(Br)cc34)c(C(=O)O)n2)cc1` ?
Solution: 10.2

Problem: Would you mind telling me what IC50 value was observed for `CNC(=O)c1nn(Cc2ccc(C#N)cc2)cc1NC(=O)c1cc(C(F)(F)F)nc2ccc(Br)cc12` ?
Solution: 0.893

Problem: Would you mind telling me what IC50 value was observed for `CCS(=O)(=O)N1CCC(Cn2cc(NC(=O)c3cc(C(N)=O)nc4ccccc34)c(C)n2)CC1` ?
Solution: 0.247

Problem: Would you mind telling me what IC50 value was observed for `Cc1cc(Cn2cc(NC(=O)c3cc(C(F)(F)F)nc4ccc(Br)cc34)c(C)n2)no1` ?
Solution: 0.294
